# measurement-target: T1, Hu CDH3 Dom1B mu (aa 144-179), human/mouse chimeric CDH3 on CHO cells (chimeric hu/mu, UniProt P22223 108-681 (human entry))
# T1 chain: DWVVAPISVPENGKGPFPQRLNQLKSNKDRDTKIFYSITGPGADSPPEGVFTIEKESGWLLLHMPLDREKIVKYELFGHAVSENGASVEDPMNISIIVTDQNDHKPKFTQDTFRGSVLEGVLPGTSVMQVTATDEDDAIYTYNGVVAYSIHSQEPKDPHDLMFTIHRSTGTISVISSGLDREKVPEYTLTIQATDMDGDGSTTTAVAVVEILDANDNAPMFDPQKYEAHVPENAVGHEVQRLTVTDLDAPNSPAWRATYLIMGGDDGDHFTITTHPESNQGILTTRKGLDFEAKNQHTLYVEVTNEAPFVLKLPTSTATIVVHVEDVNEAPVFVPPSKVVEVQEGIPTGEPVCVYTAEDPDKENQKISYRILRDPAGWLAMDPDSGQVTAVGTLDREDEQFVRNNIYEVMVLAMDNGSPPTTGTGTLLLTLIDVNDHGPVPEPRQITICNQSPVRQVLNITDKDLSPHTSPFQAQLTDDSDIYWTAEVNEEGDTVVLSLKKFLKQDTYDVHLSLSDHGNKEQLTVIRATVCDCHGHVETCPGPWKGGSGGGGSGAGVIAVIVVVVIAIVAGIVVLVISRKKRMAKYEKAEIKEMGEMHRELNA
# assay: flow cytometry, transfected CHO cells; crude periplasmic scFv extract; anti-FLAG M2 + anti-mouse IgG Fcγ-PE
experimental-readout: binding result

binder: CDH3-6 scFv (scFv) scFv: EVQLVEESGPELVKPGASVKISCKASGYAFSSSWMNWVKQRPGKGLEWIGRIYPGDGETKYNGKFKGKATLTADKSSSTAYMQLSSLTSEDSAVYFCARQRDYGALYAMDYWGQGTSVTVSSGGGGSGGGGSGGGGSELVMTQSPASLSASVGETVTITCRASDDIYSYLAWYQQKQGKSPQLLVYNAKTLAEGVPSRFSGSGSGTQFSLKINSLQPEDFGTYYCQNHYVTPFTFGAGTKLEIK
readout-value: no binding
--
binder: CDH3-10 scFv (scFv) scFv: EVQLVEESGGGLVKPGGSLKLSCAASGFTFSSYAMSWVRQTPDKRLEWVATISSGGHYTYYPDSVKGRFTISRDNAKNTLYLQMSSLKSEDTAMYYCASYYYGIPFGYWGQGTTVTVSSGGGGSGGGGSGGGGSELVMTQSPSSLSASLGEGVSLTCRASQDIGINLIWLRQEPDGTIKRLIYDTSSLDSGVPKRFSGSRSGSDYSLTISSLESEDFVHYYCLQYGSSPLTFGAGTKLEIK
readout-value: no binding
--
binder: CDH3-9 (scFv, Used as crude periplasmic extract and detected through a FLAG tag; also called CDH3-9 scFv) scFv: EVQLVEESGGDLVKPGGSLKLSCAASGFTFSTYGMSWVRQTPDKRLEWVATISSGGHYSYYPDSVKGRFTISRDNAKNTLYLQMSSLKSEDTAMYYCASYYYGSPFAYWGQGTTVTVSSGGGGSGGGGSGGGGSELQMTQSPSSLSASLGERVSLTCRASQDIGSSLNWLQQKPDGTIKRLIYDTSSLDSGVPKRFSGSRSGSDYSLTISSLESEDFGDYYCVQYGSSPLTFGAGTKLEIK
readout-value: no binding
--
binder: CDH3-8 (scFv, Used as crude periplasmic extract and detected through a FLAG tag; also called CDH3-8 scFv) scFv: EVQLVEQSGAEVVKPGASVKITCKASGYAFSSYWMNWVRQRPGKGLEWIGHIYPGDGDTNYNGKFKGKVTLTADKSSNTAYMQLSDLTPEDSAVYFCARDRGSFGAWFAYWGQGTTVTVSSGGGGSGGGGSGGGGSELVMTQTPSSLSASLGDRVTISCRASQDISNYLNWYQQKPDGTVKLLIYYTSRLHSGVPSRFSGSGSGTDYSLTISNLEQEDIATYFCQQGNRNPPTFGGGTKLEIK
readout-value: no binding
